Taken from patent US6143764A.

TEST_SYSTEM: PDGF receptor (Rattus norvegicus, UniProt Q05030)
Construct: cultured rat mesangial cells which are known to have the PDGF receptor; endogenous in cells
Sequence (Q05030 32-1097): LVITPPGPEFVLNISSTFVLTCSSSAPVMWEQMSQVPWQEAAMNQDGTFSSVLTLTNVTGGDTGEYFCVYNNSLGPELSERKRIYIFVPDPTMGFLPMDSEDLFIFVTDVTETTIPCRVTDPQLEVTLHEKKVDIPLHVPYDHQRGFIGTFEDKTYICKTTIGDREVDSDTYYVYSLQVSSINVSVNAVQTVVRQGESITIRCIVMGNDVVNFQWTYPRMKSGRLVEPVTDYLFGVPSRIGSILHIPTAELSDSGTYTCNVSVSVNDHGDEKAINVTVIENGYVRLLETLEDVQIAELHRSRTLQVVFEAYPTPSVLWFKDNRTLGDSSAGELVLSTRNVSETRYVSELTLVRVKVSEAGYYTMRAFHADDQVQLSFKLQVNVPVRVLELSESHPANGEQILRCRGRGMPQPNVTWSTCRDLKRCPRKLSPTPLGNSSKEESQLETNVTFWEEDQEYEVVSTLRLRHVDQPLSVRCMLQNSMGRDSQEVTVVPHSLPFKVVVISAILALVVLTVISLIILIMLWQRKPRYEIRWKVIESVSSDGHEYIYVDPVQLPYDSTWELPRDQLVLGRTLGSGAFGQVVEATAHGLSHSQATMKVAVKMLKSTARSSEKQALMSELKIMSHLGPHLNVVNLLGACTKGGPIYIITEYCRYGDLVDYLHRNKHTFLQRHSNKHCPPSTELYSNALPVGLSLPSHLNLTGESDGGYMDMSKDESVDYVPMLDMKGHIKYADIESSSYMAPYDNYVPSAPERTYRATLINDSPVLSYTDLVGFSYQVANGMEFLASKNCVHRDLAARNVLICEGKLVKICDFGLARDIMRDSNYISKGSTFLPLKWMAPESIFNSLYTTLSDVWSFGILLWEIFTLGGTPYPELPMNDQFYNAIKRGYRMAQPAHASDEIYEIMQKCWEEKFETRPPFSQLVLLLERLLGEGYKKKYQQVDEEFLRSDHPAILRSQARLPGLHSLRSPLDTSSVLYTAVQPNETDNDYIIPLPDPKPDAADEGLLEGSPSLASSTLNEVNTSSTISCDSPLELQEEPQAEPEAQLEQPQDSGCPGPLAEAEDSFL
PROCEDURE_TEXT: PDGF receptor autophosphorylation inhibition in cultured rat mesangial cells
CONDITIONS_USED: PDGF-BB 50 ng/ml
IC50 for assorted molecules
Response body: numeric value in nM, unit text excluded.

COc1cc2nccc(Oc3ccc(NC(=O)Nc4ccc([N+](=O)[O-])cc4Cl)cc3)c2cc1OC :: 87

Exercise: Enter IC50 (test system PDGF receptor (Rattus norvegicus, UniProt Q05030)) for `COc1cc2nccc(Oc3ccc(NC(=O)Nc4cccc(Cl)c4OC)cc3)c2cc1OC`
Solution: 47

Exercise: # return IC50 of `COc1cc2nccc(Oc3ccc(NC(=O)Nc4ccc(Cl)cc4[N+](=O)[O-])cc3)c2cc1OC` (system: PDGF receptor (Rattus norvegicus, UniProt Q05030))
Solution: 16

Exercise: Supply IC50 measured with PDGF receptor (Rattus norvegicus, UniProt Q05030) for `COc1cc2nccc(Oc3ccc(NC(=O)Nc4ccc(N)cc4Cl)cc3)c2cc1OC` .
Solution: 36

Exercise: Lab note: record IC50 of `CCCCc1ccccc1NC(=O)Nc1ccc(Oc2ccnc3cc(OC)c(OC)cc23)cc1` tested on PDGF receptor (Rattus norvegicus, UniProt Q05030).
Solution: 18

Exercise: GET IC50 where system = PDGF receptor (Rattus norvegicus, UniProt Q05030) and item = `COc1ccc(NC(=O)Nc2ccc(Oc3ccnc4cc(OC)c(OC)cc34)cc2)c(OC)c1`
Solution: 5

====

Listed here are compounds together with their documented inhibition in vivo at 50 mg/kg.
Test system: human glioma (GLO7)
PROCEDURE_TEXT: Antitumor effect of the compounds against human glioma (GLO7), nude mice xenograft
Type: in vivo
CONDITIONS_USED: Mus musculus, po, 216 h; nude mice, 50 mg/kg orally once a day, 9 days; read-out: Tumor growth inhibition rate (TGIR)
Numeric answer only, unit % assumed.

Below are worked cases with known answers.
COc1cc2nccc(Oc3ccc(NC(=O)Nc4ccc(F)cc4)cc3)c2cc1OC [Compound 44] :: 78
COc1cc2nccc(Oc3ccc(NC(=O)Nc4ccccc4C)cc3)c2cc1OC [Compound 56] :: 52
COc1cc2nccc(Oc3ccc(NC(=O)Nc4ccc(F)cc4F)cc3)c2cc1OC [Compound 272] :: 84
COc1cc2nccc(Oc3ccc(NC(=O)Nc4ccc(Cl)c(N)c4)cc3)c2cc1OC [Compound 244] :: 73

Exercise: Assign inhibition in vivo at 50 mg/kg to the following record: COc1cc2nccc(Oc3ccc(NC(=O)Nc4cccc(F)c4)cc3)c2cc1OC [Compound 59]
Solution: 82

Exercise: Report inhibition in vivo at 50 mg/kg, nothing else, for this compound: COc1cc2nccc(Oc3ccc(NC(=O)Nc4cccc(Cl)c4)cc3)c2cc1OC [Compound 267]
Solution: 65

====

# log10(IC50) per record follows
TEST_SYSTEM: PDGF receptor (Rattus norvegicus)
Construct: cultured rat mesangial cells which are known to have the PDGF receptor; endogenous in cells
PROCEDURE_TEXT: PDGF receptor autophosphorylation inhibition in cultured rat mesangial cells
CONDITIONS_USED: PDGF-BB 50 ng/ml
Heads up: the numbers are on a log10 scale; they represent IC50 in nM.

Here are 5 compounds together with their reported answers.
COc1cc2nccc(Oc3ccc(NC(=O)Nc4c(F)cccc4F)cc3)c2cc1OC :: 0.60
COc1cc2nccc(Oc3ccc(NC(=O)Nc4c(F)ccc(F)c4F)cc3)c2cc1OC :: 0.30
CCc1ccc(NC(=O)Nc2ccc(Oc3ccnc4cc(OC)c(OC)cc34)cc2)cc1 :: 0.78
COc1cc2nccc(Oc3ccc(NC(=O)NCc4ccc(N(C)C)cc4)cc3)c2cc1OC :: 1.56
COc1cc2nccc(Oc3ccc(NC(=O)Nc4ccc(F)c(F)c4F)cc3)c2cc1OC :: 0.85

Exercise: Query log10(IC50) for `COc1ccccc1NC(=O)Nc1ccc(Oc2ccnc3cc(OC)c(OC)cc23)cc1`
Solution: 0.78

Exercise: Supply reported log10(IC50) belonging to this compound: `CCCCc1ccc(NC(=O)Nc2ccc(Oc3ccnc4cc(OC)c(OC)cc34)cc2)cc1`
Solution: 1.63

Exercise: Query log10(IC50) for `COc1cc2nccc(Oc3ccc(NC(=O)Nc4c(C)cccc4Cl)cc3)c2cc1OC`
Solution: 1.04

Exercise: Query log10(IC50) for `COc1cc2nccc(Oc3ccc(NC(=O)Nc4ccc(C(C)C)cc4)cc3)c2cc1OC`
Solution: 0.95

Exercise: Quickly give me recorded log10(IC50) for `COc1cc2nccc(Oc3ccc(NC(=O)Nc4ccc(F)c(F)c4)cc3)c2cc1OC`
Solution: 0.85

Exercise: Kindly indicate its recorded log10(IC50). Item: `COc1cc2nccc(Oc3ccc(NC(=O)Nc4ccc(F)cc4)cc3)c2cc1OC`
Solution: 0.78

====

# maps each entry to its inhibition in vivo at 50 mg/kg
Tested on: human glioma (GLO7)
PROCEDURE_TEXT: Antitumor effect of the compounds against human glioma (GLO7), nude mice xenograft
Assay type: in vivo
CONDITIONS_USED: Mus musculus, po, 216 h; nude mice, 50 mg/kg orally once a day, 9 days; read-out: Tumor growth inhibition rate (TGIR)
Value expressed in %; do not type the unit.

CCOC(=O)NC(=O)Nc1ccc(Oc2ccnc3cc(OC)c(OC)cc23)cc1 [Compound 190] :: 50
COc1cc2nccc(Oc3ccc(NC(=O)Nc4c(F)ccc(F)c4F)cc3)c2cc1OC [Compound 262] :: 87

Now consider the entry below.
Exercise: Report inhibition in vivo at 50 mg/kg for COc1cc2nccc(Oc3ccc(NC(=O)Nc4ccc(F)c(F)c4)cc3)c2cc1OC [Compound 254]
Solution: 85
